# subject-of-test: MKK2 (Homo sapiens)
# Sequence (P36507 whole entry): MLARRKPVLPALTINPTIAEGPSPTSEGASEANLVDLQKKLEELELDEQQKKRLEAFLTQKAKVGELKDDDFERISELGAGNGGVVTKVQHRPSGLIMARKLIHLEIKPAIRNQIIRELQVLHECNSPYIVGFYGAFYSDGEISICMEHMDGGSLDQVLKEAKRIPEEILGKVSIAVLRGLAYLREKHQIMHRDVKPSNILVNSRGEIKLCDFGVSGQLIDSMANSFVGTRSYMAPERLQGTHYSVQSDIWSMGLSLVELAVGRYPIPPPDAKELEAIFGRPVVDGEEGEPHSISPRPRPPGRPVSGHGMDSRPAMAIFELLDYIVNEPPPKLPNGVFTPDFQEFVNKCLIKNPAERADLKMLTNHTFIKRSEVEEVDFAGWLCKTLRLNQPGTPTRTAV
# assay-notes: Kinase profiling (radiometric filter-binding)
# Format: biochemical
# conditions: MKK2, 1 µM inhibitor; read-out: Residual activity, %
Square brackets hold non-standard residues; d marks the D form. Peptide text beside a SMILES is read from it. * marks the point of attachment. X3 = O=C(CCCCCNCc1nc2c(sc3cc(Br)cnc32)c(=O)[nH]1)*
I'd be grateful if you could share measured remaining activity at 1 µM for these entries.
# do not omit the unit; it follows the number

{"columns": ["compound", "endpoint", "result"],
 "data": [
  ["N=C(N)NCCC[C@@H](NC(=O)CCCCCNCc1nc2c(sc3cc(Br)cnc32)c(=O)[nH]1)C(=O)N[C@H](CCCNC(=N)N)C(=O)N[C@H](CCCNC(=N)N)C(=O)N[C@H](CCCNC(=N)N)C(=O)N[C@H](CCCNC(=N)N)C(=O)N[C@H](CCCNC(=N)N)C(=O)N[C@H](CCCCN)C(N)=O [ARC-3126, BPTP-Ahx-(D-Arg)6-D-Lys-NH2] (X3-[dR][dR][dR][dR][dR][dR][dK]-NH2)", "remaining activity at 1 µM", "117%"]
]}

Let us move to another entry and its remaining activity at 1 µM.
# input Could you share which remaining activity at 1 µM value was measured for N=C(N)NCCC[C@@H](NC(=O)CNC(=O)[C@@H](CCCNC(=N)N)NC(=O)[C@@H](CCCNC(=N)N)NC(=O)Cn1cc(CNCc2nc3c(sc4ccc(Br)cc43)c(=O)[nH]2)nn1)C(=O)N[C@H](CCCCN)C(N)=O ?
# output 96%

###

I'd be grateful if you could share measured remaining activity at 1 µM for these entries.
# subject-of-test: TLK1 (Homo sapiens, UniProt Q9UKI8)
# Sequence (Q9UKI8 1-766): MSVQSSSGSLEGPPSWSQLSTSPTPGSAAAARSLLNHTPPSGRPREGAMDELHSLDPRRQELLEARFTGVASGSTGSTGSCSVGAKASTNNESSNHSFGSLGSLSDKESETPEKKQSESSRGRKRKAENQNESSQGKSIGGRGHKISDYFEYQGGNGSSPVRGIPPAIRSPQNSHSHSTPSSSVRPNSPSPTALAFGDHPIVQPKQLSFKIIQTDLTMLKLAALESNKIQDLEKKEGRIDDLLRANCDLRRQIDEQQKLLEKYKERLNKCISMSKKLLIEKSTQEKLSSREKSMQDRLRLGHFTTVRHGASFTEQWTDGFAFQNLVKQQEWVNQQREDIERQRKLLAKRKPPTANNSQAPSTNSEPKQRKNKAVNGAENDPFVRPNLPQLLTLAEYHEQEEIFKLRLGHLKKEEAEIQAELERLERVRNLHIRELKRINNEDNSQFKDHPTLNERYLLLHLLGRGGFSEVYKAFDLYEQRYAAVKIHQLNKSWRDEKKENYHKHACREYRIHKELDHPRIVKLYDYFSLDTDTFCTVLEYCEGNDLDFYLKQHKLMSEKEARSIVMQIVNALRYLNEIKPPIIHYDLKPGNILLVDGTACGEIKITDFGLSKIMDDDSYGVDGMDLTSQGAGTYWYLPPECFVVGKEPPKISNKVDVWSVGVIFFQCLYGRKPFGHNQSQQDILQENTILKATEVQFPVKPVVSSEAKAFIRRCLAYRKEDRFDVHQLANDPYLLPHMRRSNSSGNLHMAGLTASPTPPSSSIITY
# assay-notes: Kinase profiling (radiometric filter-binding)
# Type: biochemical
# conditions: TLK1, 1 µM inhibitor; read-out: Residual activity, %
Square brackets hold non-standard residues; d marks the D form. Peptide text beside a SMILES is read from it. * marks the point of attachment. X3 = O=C(CCCCCNCc1nc2c(sc3cc(Br)cnc32)c(=O)[nH]1)*
Numbers only, in %.

{"columns": ["compound", "remaining activity at 1 µM (%)"],
 "data": [
  ["N=C(N)NCCC[C@@H](NC(=O)CNC(=O)[C@@H](CCCNC(=N)N)NC(=O)[C@@H](CCCNC(=N)N)NC(=O)Cn1cc(CNCc2nc3c(sc4ccc(Br)cc43)c(=O)[nH]2)nn1)C(=O)N[C@H](CCCCN)C(N)=O [Compound 3, BBTP-Amt-(D-Arg)2-Gly-D-Arg-D-Lys-NH2]", 109]
]}

# input TLK1 (Homo sapiens, UniProt Q9UKI8) / remaining activity at 1 µM / N=C(N)NCCC[C@@H](NC(=O)CCCCCNCc1nc2c(sc3cc(Br)cnc32)c(=O)[nH]1)C(=O)N[C@H](CCCNC(=N)N)C(=O)N[C@H](CCCNC(=N)N)C(=O)N[C@H](CCCNC(=N)N)C(=O)N[C@H](CCCNC(=N)N)C(=O)N[C@H](CCCNC(=N)N)C(=O)N[C@H](CCCCN)C(N)=O [ARC-3126, BPTP-Ahx-(D-Arg)6-D-Lys-NH2] (X3-[dR][dR][dR][dR][dR][dR][dK]-NH2) : value?
# output 91

###

# subject-of-test: p38 MAPK (Homo sapiens, UniProt Q16539)
# Sequence (Q16539 whole entry): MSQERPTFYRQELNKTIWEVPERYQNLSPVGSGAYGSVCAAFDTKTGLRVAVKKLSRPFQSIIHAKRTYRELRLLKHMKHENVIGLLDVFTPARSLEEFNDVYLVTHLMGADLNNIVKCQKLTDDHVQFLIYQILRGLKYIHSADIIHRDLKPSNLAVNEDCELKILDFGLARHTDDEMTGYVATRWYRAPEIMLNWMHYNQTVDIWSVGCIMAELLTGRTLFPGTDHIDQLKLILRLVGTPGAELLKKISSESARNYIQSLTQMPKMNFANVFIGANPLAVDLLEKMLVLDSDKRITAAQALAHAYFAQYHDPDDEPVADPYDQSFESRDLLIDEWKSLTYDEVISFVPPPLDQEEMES
# assay-notes: Kinase profiling (radiometric filter-binding)
# Assay type: biochemical
# conditions: first of four lines (Greek letter lost), 1 µM inhibitor, read-out: Residual activity, %
Square brackets hold non-standard residues; d marks the D form. Peptide text beside a SMILES is read from it. * marks the point of attachment. X3 = O=C(CCCCCNCc1nc2c(sc3cc(Br)cnc32)c(=O)[nH]1)*
endpoint: remaining activity at 1 µM

{"columns": ["compound", "remaining activity at 1 µM"],
 "data": [
  ["N=C(N)NCCC[C@@H](NC(=O)CNC(=O)[C@@H](CCCNC(=N)N)NC(=O)[C@@H](CCCNC(=N)N)NC(=O)CCCCCCCNCc1nc2c(sc3cc(Br)cnc32)c(=O)[nH]1)C(=O)N[C@H](CCCCN)C(N)=O", "113%"],
  ["N=C(N)NCCC[C@@H](NC(=O)CCCCCNCc1nc2c(sc3cc(Br)cnc32)c(=O)[nH]1)C(=O)N[C@H](CCCNC(=N)N)C(=O)N[C@H](CCCNC(=N)N)C(=O)N[C@H](CCCNC(=N)N)C(=O)N[C@H](CCCNC(=N)N)C(=O)N[C@H](CCCNC(=N)N)C(=O)N[C@H](CCCCN)C(N)=O [ARC-3126, BPTP-Ahx-(D-Arg)6-D-Lys-NH2] (X3-[dR][dR][dR][dR][dR][dR][dK]-NH2)", "116%"]
]}

Each compound below has a recorded value; state its remaining activity at 1 µM.
1. N=C(N)NCCC[C@@H](NC(=O)CCCCCNC(=O)Cn1cnc2c(I)c(I)c(I)c(I)c21)C(=O)N[C@H](CCCNC(=N)N)C(=O)N[C@H](CCCNC(=N)N)C(=O)N[C@H](CCCNC(=N)N)C(=O)N[C@H](CCCNC(=N)N)C(=O)N[C@H](CCCNC(=N)N)C(=O)N[C@H](CCCCN)C(N)=O
2. N=C(N)NCCC[C@@H](NC(=O)CNC(=O)[C@@H](CCCNC(=N)N)NC(=O)[C@@H](CCCNC(=N)N)NC(=O)Cn1cc(CNCc2nc3c(sc4ccc(Br)cc43)c(=O)[nH]2)nn1)C(=O)N[C@H](CCCCN)C(N)=O
3. N=C(N)NCCC[C@@H](NC(=O)CNC(=O)[C@@H](CCCNC(=N)N)NC(=O)[C@@H](CCCNC(=N)N)NC(=O)CCCCCCCNCc1nc2c(sc3ccc(Br)cc32)c(=O)[nH]1)C(=O)N[C@H](CCCCN)C(N)=O

# output
1: 53%; 2: 110%; 3: 116%

###

I'd be grateful if you could share measured remaining activity at 1 µM for these entries.
# subject-of-test: YES1 (Homo sapiens)
# Sequence (P07947 whole entry): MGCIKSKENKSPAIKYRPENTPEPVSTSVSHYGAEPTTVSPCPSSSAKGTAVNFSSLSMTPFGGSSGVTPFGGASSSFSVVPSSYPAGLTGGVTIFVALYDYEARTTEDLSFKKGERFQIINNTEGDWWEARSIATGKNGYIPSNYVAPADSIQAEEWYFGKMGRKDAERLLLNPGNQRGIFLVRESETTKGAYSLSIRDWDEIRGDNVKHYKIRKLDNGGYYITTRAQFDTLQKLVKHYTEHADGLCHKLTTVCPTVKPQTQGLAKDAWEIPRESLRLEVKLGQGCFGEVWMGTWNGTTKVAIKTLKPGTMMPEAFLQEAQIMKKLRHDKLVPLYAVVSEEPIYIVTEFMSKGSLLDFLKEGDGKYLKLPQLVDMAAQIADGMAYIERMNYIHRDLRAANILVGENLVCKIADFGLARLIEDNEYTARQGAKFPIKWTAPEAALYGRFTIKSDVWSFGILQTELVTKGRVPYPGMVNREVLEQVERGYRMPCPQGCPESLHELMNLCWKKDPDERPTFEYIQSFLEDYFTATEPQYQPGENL
# assay-notes: Kinase profiling (radiometric filter-binding)
# Type: biochemical
# conditions: YES1, 1 µM inhibitor; read-out: Residual activity, %
Square brackets hold non-standard residues; d marks the D form. Peptide text beside a SMILES is read from it. * marks the point of attachment. X3 = O=C(CCCCCNCc1nc2c(sc3cc(Br)cnc32)c(=O)[nH]1)*
Numbers only, in %.

Some solved cases for reference:
{"columns": ["molecule", "remaining activity at 1 µM / %"],
 "data": [
  ["N=C(N)NCCC[C@@H](NC(=O)CNC(=O)[C@@H](CCCNC(=N)N)NC(=O)[C@@H](CCCNC(=N)N)NC(=O)Cn1cc(CNCc2nc3c(sc4ccc(Br)cc43)c(=O)[nH]2)nn1)C(=O)N[C@H](CCCCN)C(N)=O", 124],
  ["N=C(N)NCCC[C@@H](NC(=O)CCCCCNC(=O)Cn1cnc2c(I)c(I)c(I)c(I)c21)C(=O)N[C@H](CCCNC(=N)N)C(=O)N[C@H](CCCNC(=N)N)C(=O)N[C@H](CCCNC(=N)N)C(=O)N[C@H](CCCNC(=N)N)C(=O)N[C@H](CCCNC(=N)N)C(=O)N[C@H](CCCCN)C(N)=O", 104],
  ["N=C(N)NCCC[C@@H](NC(=O)CCCCCNCc1nc2c(sc3cc(Br)cnc32)c(=O)[nH]1)C(=O)N[C@H](CCCNC(=N)N)C(=O)N[C@H](CCCNC(=N)N)C(=O)N[C@H](CCCNC(=N)N)C(=O)N[C@H](CCCNC(=N)N)C(=O)N[C@H](CCCNC(=N)N)C(=O)N[C@H](CCCCN)C(N)=O [ARC-3126, BPTP-Ahx-(D-Arg)6-D-Lys-NH2] (X3-[dR][dR][dR][dR][dR][dR][dK]-NH2)", 98]
]}

Each molecule below has a recorded value; state its remaining activity at 1 µM.
1. N=C(N)NCCC[C@@H](NC(=O)CNC(=O)[C@@H](CCCNC(=N)N)NC(=O)[C@@H](CCCNC(=N)N)NC(=O)CCCCCCCNCc1nc2c(sc3ccc(Br)cc32)c(=O)[nH]1)C(=O)N[C@H](CCCCN)C(N)=O
2. N=C(N)NCCC[C@@H](NC(=O)CNC(=O)[C@@H](CCCNC(=N)N)NC(=O)[C@@H](CCCNC(=N)N)NC(=O)CCCCCCCNCc1nc2c(sc3cc(Br)cnc32)c(=O)[nH]1)C(=O)N[C@H](CCCCN)C(N)=O

# output
[104, 110]

The measured values listed here are drawn from paper PMC8307404.
